src = patent US20170349638A1

Where a SMILES comes first, the peptide text is derived from it. Bridges are numbered along the chain shown (N, C = ends). [ ]: non-standard residue; d: D form. Trp(6-Cl) = N[C@@H](Cc1c[nH]c2cc(Cl)ccc12)C(=O)O; R8 = C=CCCCCCC[C@@](C)(N)C(=O)O; S5 = C=CCCC[C@](C)(N)C(=O)O; Ac3c = NC1(C(=O)O)CC1
Parameter pIC50, tested on UniProt:Q00987, listed per item.
Sequence (Q00987 whole entry, looked up): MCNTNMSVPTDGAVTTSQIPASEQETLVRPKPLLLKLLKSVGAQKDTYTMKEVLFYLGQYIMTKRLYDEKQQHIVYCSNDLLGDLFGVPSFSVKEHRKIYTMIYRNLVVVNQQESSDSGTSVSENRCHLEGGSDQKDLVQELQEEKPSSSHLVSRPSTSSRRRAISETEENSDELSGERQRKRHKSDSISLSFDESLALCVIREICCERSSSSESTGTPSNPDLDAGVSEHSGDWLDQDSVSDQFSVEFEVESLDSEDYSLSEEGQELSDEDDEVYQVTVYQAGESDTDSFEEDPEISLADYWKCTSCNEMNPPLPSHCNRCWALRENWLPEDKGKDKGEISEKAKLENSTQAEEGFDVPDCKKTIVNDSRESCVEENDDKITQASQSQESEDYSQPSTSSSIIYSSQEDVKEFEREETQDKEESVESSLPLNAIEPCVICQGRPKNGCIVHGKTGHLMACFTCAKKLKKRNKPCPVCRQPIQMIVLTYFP
# pIC50: negative log10 of molar concentration; output just the value

Compound: CC(=O)N[C@@H](Cc1ccccc1)C(=O)N[C@]1(C)CCCCCCC=CCCC[C@@](C)(C(=O)N[C@@H](C)C(N)=O)NC(=O)[C@H](CC(C)C)NC(=O)C2(CC2)NC(=O)[C@H](CCC(=O)O)NC(=O)[C@H](Cc2c[nH]c3cc(Cl)ccc23)NC(=O)[C@H](Cc2ccc(O)cc2)NC(=O)[C@H](C)NC1=O [SP-128, Ac- F $r8 A Y 6clW E Ac3c L $ A -NH2] (Ac-F[R8]AY[Trp(6-Cl)]E[Ac3c]L[S5]A-NH2; staple 2-9 (inferred))
pIC50: 6.94
--
Compound: CC(=O)N[C@@H](CC(C)C)C(=O)N[C@H](C(=O)N[C@@H](Cc1ccccc1)C(=O)N[C@]1(C)CCCCCC/C=C/CCC[C@@](C)(C(=O)N[C@@H](CO)C(N)=O)NC(=O)[C@H](CC(C)C)NC(=O)[C@H](CCC(N)=O)NC(=O)[C@H](C)NC(=O)[C@H](Cc2c[nH]c3ccccc23)NC(=O)[C@H](Cc2ccc(O)cc2)NC(=O)[C@H](C)NC1=O)[C@@H](C)O [SP-190, Ac- L T F $er8 A Y W A Q L $e S -NH2] (Ac-LTF[R8]AYWAQL[S5]S-NH2; staple (E) 4-11 (inferred))
pIC50: 7.13

Please turn your attention to the following entry.
Input CC(=O)N[C@@H](CC(C)C)C(=O)N[C@H](C(=O)N[C@@H](Cc1ccccc1)C(=O)N[C@]1(C)CCCCCCC=CCCC[C@@](C)(C(=O)N[C@@H](CO)C(N)=O)NC(=O)[C@H](CC(C)C)NC(=O)[C@H](CCC(N)=O)NC(=O)[C@H](C)NC(=O)[C@H](Cc2c[nH]c3ccccc23)NC(=O)[C@H](Cc2ccc(O)cc2)NC(=O)[C@H](Cc2ccccc2)NC1=O)[C@@H](C)O [SP-267, Ac- L T F $r8 F Y W A Q L $ S -NH2] (Ac-LTF[R8]FYWAQL[S5]S-NH2; staple 4-11 (inferred)) . Output pIC50: 6.72
